- assay_system: wild-type InhA (Mycobacterium tuberculosis, UniProt P9WGR1)
- Sequence (P9WGR1 whole entry, looked up): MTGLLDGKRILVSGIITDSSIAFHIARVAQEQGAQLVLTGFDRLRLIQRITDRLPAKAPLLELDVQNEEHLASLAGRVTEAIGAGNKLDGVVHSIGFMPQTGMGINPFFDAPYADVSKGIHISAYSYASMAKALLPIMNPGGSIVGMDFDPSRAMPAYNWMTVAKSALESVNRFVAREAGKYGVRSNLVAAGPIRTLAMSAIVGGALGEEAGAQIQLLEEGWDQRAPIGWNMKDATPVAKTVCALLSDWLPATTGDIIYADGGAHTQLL
- measurement_notes: InhA enzyme inhibition, steady state kinetics
- Assay type: biochemical
Attribute: IC50
Enter your answer as a number in µM; do not include the unit.

Completed entries (count: 4):
Q: Reported IC50 for CCCCCCc1ccc(Oc2c(Cl)cccc2Cl)c(O)c1 : what is it?
A: 0.086

Q: Quick one: IC50 for CCCCCCc1ccc(Oc2c(F)cccc2Cl)c(O)c1 ?
A: 0.0797

Q: Recorded IC50 for CCCCCCc1ccc(Oc2c(F)cccc2C#N)c(O)c1 , please?
A: 0.1

Q: So what's the measured IC50 for this one? CCCCCCc1ccc(Oc2ccc([N+](=O)[O-])cc2C)c(O)c1
A: 0.05

Next:
Q: Name the recorded IC50 for CCCCCCc1ccc(Oc2cccnc2F)c(O)c1 .
A: 0.04

---

- assay_system: wild-type InhA (Mycobacterium tuberculosis)
- measurement_notes: InhA progress curve assays
- Assay type: biochemical
- experimental_conditions: Table 1; slow-onset (time-dependent) inhibition of InhA, Yes/No
quantity_name: Slow-onset

The following compounds have reported results that may help.
Q: Give the measured Slow-onset of CCCCCCc1ccc(Oc2ccccc2F)c(O)c1 .
A: Yes

Q: Fill in: Slow-onset of CCCCCCc1ccc(Oc2ccccc2O)c(O)c1 [PT114, 5-Hexyl-2-(2-hydroxyphenoxy)phenol] is ___
A: No

Q: What does the record list as Slow-onset for CCCCCCc1ccc(Oc2ccccc2I)c(O)c1 ?
A: No

Q: Reported Slow-onset for CCCCCCc1ccc(Oc2ccccc2C(F)(F)F)c(O)c1 : what is it?
A: No

***
Q: # lookup: Slow-onset of CCCCCCc1ccc(Oc2ccccc2Br)c(O)c1
A: Yes

Q: Can you look up the measured Slow-onset of CCCCCCc1ccc(Oc2ccccc2C#N)c(O)c1 [PT119, 2-(4-Hexyl-2-hydroxyphenoxy)benzonitrile] for me?
A: Yes
